- Test system: human liver cytosol stability, half-life
- procedureDetails: NCATS Human Liver Cytosol Stability Profiling
- conditionInfo: higher = more stable
measurementType: log10 of half-life (log10 of the value in h)

compound	log10 of half-life
CN(Cc1ccccc1)C1CCOc2ccccc21 (centres undefined)	-0.90
N#Cc1ccc(CN2CC(N3CCc4ccccc43)C2)cc1	0.21
COc1cccc(-c2cn3c(n2)N(C(=O)c2ccoc2)CCC3)c1	0.27
O=C(Nc1cnc(-c2ccccc2)nc1)c1cccc(F)c1	-0.06
O=C(c1ccsc1)N1CCC(Oc2ccccc2)C1 (centres undefined)	-0.18

* * *

- System: human liver cytosol stability, half-life
- procedureDetails: NCATS Human Liver Cytosol Stability Profiling
- conditionInfo: higher = more stable

compound	testSystem	half-life
Cc1nn2c(c1-c1ccccc1Oc1ccccc1)N(Cc1ccc(C(=O)O)cc1)CCC2	human liver cytosol stability, half-life	> 2 h
O=C1COCCN1c1cc(-c2cccc(F)c2)cn2cncc12	human liver cytosol stability, half-life	> 2 h
O=C(c1ccncc1)N1CCC(Oc2cccc(F)c2)C1 (centres undefined)	human liver cytosol stability, half-life	> 2 h
COCCNC(=O)c1nc2sccn2c1-c1cccc(OC)c1	human liver cytosol stability, half-life	> 2 h

Where these numbers come from: PubChem BioAssay AID1508603
